Origin of values: the supplement of paper PMC8371130

# Tested on: HL-1
# Protocol: relative cell viability (CellTiter-Glo) vs DMSO control (% of DMSO control); higher = more viable cells
# Reported conditions: oxygen condition: hypoxia 48 h (1% O2) + reoxygenation 24 h; 5000 nM
Counter-ions that a name gives are not always drawn.
relative cell viability reference

1) O=C1CCc2cc(OCCCCc3nnnn3C3CCCCC3)ccc2N1: 107
2) NCCCC[C@H](N[C@@H](CCc1ccccc1)C(=O)O)C(=O)N1CCC[C@H]1C(=O)O: 107
3) C#CCN[C@@H]1CCc2ccccc21 [Rasagiline mesylate]: 102
4) CC(C)NC[C@H](O)COc1ccc(CCOCC2CC2)cc1 [Levobetaxolol HCl]: 115

-- ask API: value(readout= relative cell viability, system= HL-1, query= `Cn1ccnc1S` )
-- reply 98.1

---

# Tested on: HL-1
# Protocol: relative cell viability (CellTiter-Glo) vs DMSO control (% of DMSO control); higher = more viable cells
# Reported conditions: oxygen condition: normoxia 72 h; 40 nM
Rule for this label: label 1 means relative cell viability is less than 100; label 0 means relative cell viability is at least 100.

1. COCCOC(=O)C1=C(C)NC(C)=C(C(=O)OC(C)C)C1c1cccc([N+](=O)[O-])c1 (centres undefined): label 0
2. N#Cc1ccc(C(c2ccc(C#N)cc2)n2cncn2)cc1: label 0
3. CCCNC(C)C(=O)Nc1ccccc1C (centres undefined): label 1

Moving on to another compound below.
-- ask Consider `OCCN(CCO)c1nc(N2CCCCC2)c2nc(N(CCO)CCO)nc(N3CCCCC3)c2n1` . Does its relative cell viability lie strictly below 100?
-- reply label 0

---

# System: HL-1
# Protocol: relative cell viability (CellTiter-Glo) vs DMSO control (% of DMSO control); higher = more viable cells
# Reported conditions: oxygen condition: normoxia 72 h; 5000 nM
Where a name gives a salt, the structure may show the parent alone.
Property: relative cell viability
Could you respond with only the numeric value?

// below: answered compounds
1. CN(Cc1ccc(C(C)(C)C)cc1)Cc1cccc2ccccc12 [Butenafine HCl]: 110
2. COc1ccccc1OCC(O)CN1CCN(CC(=O)Nc2c(C)cccc2C)CC1 (stereo not given) [Ranolazine dihydrochloride]: 110
3. C#CCN[C@@H]1CCc2ccccc21 [Rasagiline mesylate]: 108

-- ask # relative cell viability lookup, item Cc1ncc(C[n+]2csc(CCO)c2C)c(N)n1 [Thiamine HCl]
-- reply 117

-- ask Item `Nc1ccn([C@@H]2O[C@H](CO)[C@@H](O)[C@H]2O)c(=O)n1` has what recorded relative cell viability?
-- reply 106

---

We begin with a simple list: items and their reported relative cell viability.
# Tested on: HL-1
# Protocol: relative cell viability (CellTiter-Glo) vs DMSO control (% of DMSO control); higher = more viable cells
# Reported conditions: oxygen condition: normoxia 72 h; 40 nM

Known results for compounds:
1) Cc1cc2c(cc1S(N)(=O)=O)S(=O)(=O)CCC2: 102
2) COC(=O)[C@H]1[C@H]2C[C@@H]3c4[nH]c5cc(OC)ccc5c4CCN3C[C@H]2C[C@@H](OC(=O)c2cc(OC)c(OC)c(OC)c2)[C@@H]1OC: 102

Moving on to another compound below.
-- ask So what's the measured relative cell viability for this one? OC(CNCC(O)C1CCc2cc(F)ccc2O1)C1CCc2cc(F)ccc2O1 (stereo not drawn)
-- reply 103

---

# Tested on: HL-1
# Protocol: relative cell viability (CellTiter-Glo) vs DMSO control (% of DMSO control); higher = more viable cells
# Reported conditions: oxygen condition: hypoxia 48 h (1% O2) + reoxygenation 24 h; 40 nM
Where a name gives a salt, the structure may show the parent alone.
Labelling field: enter 1.0 if recorded relative cell viability is less than 100. Enter 0.0 if it equals or exceeds that cut-off.

The following compounds have reported results that may help.
1) CN(C)CCOc1ccc(/C(=C(/CCCl)c2ccccc2)c2ccccc2)cc1 [Toremifene Citrate]: 0.0
2) NC(CO)C(=O)NNCc1ccc(O)c(O)c1O (stereo not given) [Benserazide]: 0.0
3) Clc1ccccc1CN1CCc2sccc2C1 [Ticlopidine HCl]: 1.0

-- ask Please state whether relative cell viability is below 100 for CCc1ccc(CCOc2ccc(CC3SC(=O)NC3=O)cc2)nc1 (stereo not given) [Pioglitazone]
-- reply 0.0

-- ask Report whether reported relative cell viability is lower than 100 (strictly) for CCOc1nc2cccc(C(=O)OC(C)OC(=O)OC3CCCCC3)c2n1Cc1ccc(-c2ccccc2-c2nn[nH]n2)cc1 (stereo not given)
-- reply 0.0

-- ask Lab note: confirm whether the reported relative cell viability for this compound is below 100, equality not counting. compound: `CCCc1nc(C(C)(C)O)c(C(=O)OCc2oc(=O)oc2C)n1Cc1ccc(-c2ccccc2-c2nnn[nH]2)cc1`
-- reply 1.0

-- ask A record lists `Cn1c(CNc2ccc(C(=N)N)cc2)nc2cc(C(=O)N(CCC(=O)O)c3ccccn3)ccc21` . Is its relative cell viability below 100?
-- reply 0.0

-- ask Bench note: check whether CN1C(CCl)Nc2cc(Cl)c(S(N)(=O)=O)cc2S1(=O)=O (stereo not given) [Methyclothiazide] shows relative cell viability below 100
-- reply 0.0

-- ask Does this compound meet the criterion relative cell viability < 100? CCCC(CCC)C(=O)O[C@H]1C[C@H]2CC[C@@H](C1)[N+]2(C)C [Anisotropine Methylbromide]
-- reply 0.0

-- ask Please check: relative cell viability for `Oc1ncnc2[nH]ncc12` , strictly under 100 or not?
-- reply 0.0

---

# System: HL-1
# Protocol: relative cell viability (CellTiter-Glo) vs DMSO control (% of DMSO control); higher = more viable cells
# Reported conditions: oxygen condition: hypoxia 48 h (1% O2) + reoxygenation 24 h; 1000 nM
Counter-ions that a name gives are not always drawn.
Listed molecules paired with reported relative cell viability

1) COCCCOc1cc(C[C@@H](C[C@H](N)[C@@H](O)C[C@H](C(=O)NCC(C)(C)C(N)=O)C(C)C)C(C)C)ccc1OC [Aliskiren hemifumarate]: 92.3
2) O=C(O)C(=O)O.[NH-][C@@H]1CCCC[C@H]1[NH-].[Pt+2]: 109
3) C#C[C@]1(O)CC[C@H]2[C@@H]3CCC4=CC(=O)CC[C@@H]4[C@H]3CC[C@@]21C: 97
4) N[C@@H](CSCCCO)C(=O)O: 109
5) N[C@@H](Cc1cc(I)c(Oc2ccc(O)c(I)c2)c(I)c1)C(=O)O [Liothyronine Sodium]: 111

-- ask Record OC(CCN1CCCC1)(c1ccccc1)C1CCCCC1 (configuration not stated) [Procyclidine HCl] : what is its relative cell viability with HL-1?
-- reply 85.4

-- ask # get_value(readout= relative cell viability, system= HL-1) for `CC(C)C[C@H](NC(=O)[C@@H](O)[C@H](N)Cc1ccccc1)C(=O)O`
-- reply 98.2

-- ask Form field: relative cell viability recorded for `NC(N)=Nc1nc(CSCC/C(N)=N/S(N)(=O)=O)cs1` with HL-1 (enter value)
-- reply 114

-- ask Form field: relative cell viability recorded for CCC(C)n1ncn(-c2ccc(N3CCN(c4ccc(OCC5COC(Cn6cncn6)(c6ccc(Cl)cc6Cl)O5)cc4)CC3)cc2)c1=O (configuration not stated) with HL-1 (enter value)
-- reply 100

-- ask # returns recorded relative cell viability (system: HL-1) for `CN(C)C/C=C/C(=O)Nc1cc2c(Nc3ccc(F)c(Cl)c3)ncnc2cc1O[C@H]1CCOC1`
-- reply 85.9

-- ask Param readout = relative cell viability; param system = HL-1; param query = CC(=O)Nc1ccccc1 [Acetanilide] ; response: value
-- reply 100

-- ask API: value(readout=relative cell viability, system=HL-1) for record COC(=O)N[C@H](C(=O)N[C@@H](Cc1ccccc1)[C@@H](O)CN(Cc1ccc(-c2ccccn2)cc1)NC(=O)[C@@H](NC(=O)OC)C(C)(C)C)C(C)(C)C [Atazanavir sulfate]
-- reply 105

---

Listed below: relative cell viability values for each entry.
# System: HL-1
# Protocol: relative cell viability (CellTiter-Glo) vs DMSO control (% of DMSO control); higher = more viable cells
# Reported conditions: oxygen condition: hypoxia 48 h (1% O2) + reoxygenation 24 h; 40 nM
Where a name gives a salt, the structure may show the parent alone.
Quick one: just the number, no unit, thanks!

1) CCCC(=O)[O-].[Na+] [Sodium butyrate]: 103

-- ask Which relative cell viability value is on record for CCCCN(CCCC)CCCOC(=O)c1ccc(N)cc1 [Butacaine] ?
-- reply 103

-- ask # get_value(readout='relative cell viability', item= Nc1ncn([C@H]2C[C@H](O)[C@@H](CO)O2)c(=O)n1 [Decitabine] )
-- reply 103

-- ask Can you share its relative cell viability? I mean this compound: CC(Oc1c(Cl)cccc1Cl)C1=NCCN1 (stereo unspecified) [Lofexidine HCl]
-- reply 99.4

-- ask May I ask what relative cell viability has been recorded for N[C@@H](Cc1cc(I)c(Oc2ccc(O)c(I)c2)c(I)c1)C(=O)O [Liothyronine Sodium] ?
-- reply 105

-- ask Looking for the measured relative cell viability of CCN(CC)CCOc1ccc(C(=C(Cl)c2ccccc2)c2ccccc2)cc1 [Clomifene citrate] , can you help?
-- reply 101

-- ask Value lookup for relative cell viability; key = O=C(O)c1cc(=O)c2ccccc2o1 [Chromocarb]
-- reply 103

-- ask Entry under review: Cl.N=C(N)NCCC[C@H](N)C(=O)O [L-Arginine HCl] . Reported relative cell viability?
-- reply 97.5

-- ask Give the measured relative cell viability of CCOc1nc2cccc(C(=O)OCc3oc(=O)oc3C)c2n1Cc1ccc(-c2ccccc2-c2noc(=O)[nH]2)cc1 [Azilsartan Medoxomil] .
-- reply 101

-- ask // lookup relative cell viability for CO[C@H]1O[C@@H]2O[C@@]3(C)CC[C@H]4[C@H](C)CC[C@@H]([C@H]1C)[C@@]24OO3 [Artemether]
-- reply 104

-- ask Param item = O=C(Nc1ccccc1)OCC(CN1CCCCC1)OC(=O)Nc1ccccc1 (stereo unspecified) [Diperodon HCl] ; retrieve measured relative cell viability.
-- reply 103
